# Test system: HeLa cell line
# METHOD DESCRIPTION: Proliferation assay (HeLa cell line)
# Assay type: cell-based
# RUN PARAMETERS: Homo sapiens, 96 h, 4 days incubation, crystal violet staining, read-out: Biological Assay 2: Proliferation assay (HeLa cell line) median IC50
# Method: Cultivated tumor cells (cells were ordered from ATCC, except HeLa-MaTu and HeLa-MaTu-ADR, which were ordered from EPO-GmbH, Berlin) were plated at a density of 1000 to 5000 cells/well, depending on the growth rate of the respective cell line, in a 96-well multititer plate in 200 μL of their respective growth medium supplemented 10% fetal calf serum. […] Absorbtion was determined by photometry at a wavelength of 595 nm. […] The IC50 values were determined by means of a 4 parameter fit.
pIC50: −log10 of the molar value.
QUANTITY NAME: pIC50

# COMPOUND, pIC50
rows = [
    ("CCOc1cc(F)c(Cn2nc(-c3nc(Nc4ccncn4)c(NC(=O)COC)c(Nc4ccncn4)n3)c(C)c2C2CC2)c(F)c1 [Example 2-2-15]", 5.33),
    ("CCNC(=O)Nc1nc(-c2nn(Cc3c(F)cc(OCC)cc3F)c(C3CC3)c2C)nc(Nc2ccncc2)c1N1CCOCC1 [Example 2-1-18]", 5.00),
    ("CCOc1cc(F)c(Cn2nc(-c3nc(Nc4ccncc4)c(N4CCOCC4)c(Nc4ccncc4)n3)c(C)c2C2CC2)c(F)c1 [Example 2-2-6]", 5.15),
]

###

# Tested on: HeLa cell line
# METHOD DESCRIPTION: Proliferation assay (HeLa cell line)
# Format: cell-based
# RUN PARAMETERS: Homo sapiens, 96 h, 4 days incubation, crystal violet staining, read-out: Biological Assay 2: Proliferation assay (HeLa cell line) median IC50
pIC50: −log10 of the molar value.
QUANTITY NAME: pIC50

# COMPOUND, MEASUREMENT TARGET, pIC50
data = [
    ("C=CC(=O)Nc1cc(Nc2ccncc2)nc(-c2nn(Cc3c(F)cc(OCC)cc3F)c(C3CC3)c2C)n1 [Example 2-1-22]", "HeLa cell line", 5.01),
]

(P) CCOc1cc(F)c(Cn2nc(-c3nc(Nc4ccnnc4)cc(Nc4ccnnc4)n3)c(C)c2C2CC2)c(F)c1 [Example 2-2-10]
(Q) CCOc1cc(F)c(Cn2nc(-c3nc(NC(=O)NC4CCCCC4)c(OC)c(Nc4ccncc4)n3)c(C)c2C2CC2)c(F)c1 [Example 2-1-16]
[ask] Of the two listed items, which has the higher pIC50? First: P Second: Q Choose, then provide that item's label.
[reply] Q

###

# MEASUREMENT TARGET: catalytic domain of human Bub1 (amino acids 704-1085) (Homo sapiens, UniProt O43683)
# Construct: catalytic domain of human Bub1 (amino acids 704-1085); His6 (N); made in house; host or cells: Hi5 insect cells
# Sequence (O43683 704-1085): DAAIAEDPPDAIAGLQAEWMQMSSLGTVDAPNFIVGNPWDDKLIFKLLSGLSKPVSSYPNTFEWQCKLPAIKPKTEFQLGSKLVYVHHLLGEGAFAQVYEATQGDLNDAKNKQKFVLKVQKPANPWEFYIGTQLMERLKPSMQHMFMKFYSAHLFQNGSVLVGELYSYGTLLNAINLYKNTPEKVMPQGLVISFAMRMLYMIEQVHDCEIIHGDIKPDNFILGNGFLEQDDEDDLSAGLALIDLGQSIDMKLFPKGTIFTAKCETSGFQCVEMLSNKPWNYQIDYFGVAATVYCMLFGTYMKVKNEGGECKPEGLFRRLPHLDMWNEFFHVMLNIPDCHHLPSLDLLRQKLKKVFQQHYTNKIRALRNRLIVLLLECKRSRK
# METHOD DESCRIPTION: Bub1 kinase assay (TR-FRET)
# Type: biochemical
# RUN PARAMETERS: 10 μM ATP, 1 μM peptide substrate, TR-FRET; read-out: Biological Assay 1: Bub1 kinase assay median IC50
pIC50: −log10 of the molar value.
QUANTITY NAME: pIC50

Here are 4 compounds together with their reported answers.
# COMPOUND, MEASUREMENT TARGET, pIC50
rows = [
    ("CCOc1cc(F)c(Cn2nc(-c3nc(Nc4ccncc4)c(OCCOC)c(Nc4ccncc4)n3)c(C)c2C2CC2)c(F)c1 [Example 2-2-12]", "catalytic domain of human Bub1 (amino acids 704-1085) (Homo sapiens, UniProt O43683)", 6.32),
    ("CCNC(=O)Nc1nc(-c2nn(Cc3c(F)cc(OCC)cc3F)c(C3CC3)c2C)nc(Nc2ccncc2)c1OC [Example 2-1-14]", "catalytic domain of human Bub1 (amino acids 704-1085) (Homo sapiens, UniProt O43683)", 6.51),
    ("CCOc1cc(F)c(Cn2nc(-c3nc(N)c(OCCOC)c(Nc4ccncc4)n3)c(C)c2C2CC2)c(F)c1 [Example 2-1-25]", "catalytic domain of human Bub1 (amino acids 704-1085) (Homo sapiens, UniProt O43683)", 8.00),
    ("CCNC(=O)Nc1c(N)nc(-c2nn(Cc3c(F)cc(OCC)cc3F)c(C3CC3)c2C)nc1Nc1ccncc1 [Example 2-1-29]", "catalytic domain of human Bub1 (amino acids 704-1085) (Homo sapiens, UniProt O43683)", 7.72),
]

(P) CCNC(=O)Nc1cc(Nc2ccncn2)nc(-c2nn(Cc3c(F)cc(OCC)cc3F)c(C3CC3)c2C)n1 [Example 2-1-11]
(Q) CCOc1cc(F)c(Cn2nc(-c3nc(N)cc(Nc4ccncc4)n3)c(C)c2C2CC2)c(F)c1 [Example 2-1-1]
(R) CCOc1cc(F)c(Cn2nc(-c3nc(NC(=O)NC4CCCCC4)c(N4CCOCC4)c(Nc4ccncn4)n3)c(C)c2C2CC2)c(F)c1 [Example 2-1-21]
[ask] List the 3 entries from lowest pIC50 to highest pIC50 value. Provide your answer as the labels ordered per the instruction.
[reply] R, P, Q

###

# Tested on: HeLa cell line
# METHOD DESCRIPTION: Proliferation assay (HeLa cell line)
# Type: cell-based
# RUN PARAMETERS: Homo sapiens, 96 h, read-out: Biological Assay 2: Proliferation assay (HeLa cell line) median IC50
# Method: Cultivated tumor cells (cells were ordered from ATCC, except HeLa-MaTu and HeLa-MaTu-ADR, which were ordered from EPO-GmbH, Berlin) were plated at a density of 1000 to 5000 cells/well, depending on the growth rate of the respective cell line, in a 96-well multititer plate in 200 μL of their respective growth medium supplemented 10% fetal calf serum. […] Absorbtion was determined by photometry at a wavelength of 595 nm. […] The IC50 values were determined by means of a 4 parameter fit.
pIC50: −log10 of the molar value.
QUANTITY NAME: pIC50

Look over these answered cases.
# MOL SMILES, QUANTITY NAME, TEST RESULT
records = [
    ("CCOc1cc(F)c(Cn2nc(-c3nc(NC(=O)NC4CCCCC4)c(N4CCOCC4)c(Nc4ccncn4)n3)c(C)c2C2CC2)c(F)c1", "pIC50", 5.13),
    ("CCOc1cc(F)c(Cn2nc(-c3nc(N)c(OC)c(Nc4ccncn4)n3)c(C)c2C2CC2)c(F)c1", "pIC50", 5.29),
    ("CCOc1cc(F)c(Cn2nc(-c3nc(NC(=O)NC4CCCCC4)c(OC)c(Nc4ccncn4)n3)c(C)c2C2CC2)c(F)c1", "pIC50", 5.26),
    ("CCOc1cc(F)c(Cn2nc(-c3nc(N)c(OC)c(Nc4ccncc4)n3)c(C)c2C2CC2)c(F)c1", "pIC50", 5.46),
    ("CCOc1cc(F)c(Cn2nc(-c3nc(N)c(N4CCOCC4)c(Nc4ccncc4)n3)c(C)c2C2CC2)c(F)c1", "pIC50", 5.28),
]

(a) CCOc1cc(F)c(Cn2nc(-c3nc(N)c(NS(=O)(=O)C(F)(F)F)c(Nc4ccncc4)n3)c(C)c2C2CC2)c(F)c1
(b) CCOc1cc(F)c(Cn2nc(-c3nc(Nc4ccncn4)cc(Nc4ccncn4)n3)c(C)c2C2CC2)c(F)c1
(c) CCOc1cc(F)c(Cn2nc(-c3nc(N)c(N4CCOCC4)c(Nc4ccncn4)n3)c(C)c2C2CC2)c(F)c1
(d) CCNC(=O)Nc1c(Nc2ccncc2)nc(-c2nn(Cc3c(F)cc(OCC)cc3F)c(C3CC3)c2C)nc1Nc1ccncc1
[ask] # desc sort on pIC50 across 4 molecules Write the labels out in the order the request specifies.
[reply] b, d, c, a
(b: 6.25, d: 5.66, c: 5.28, a: 5.00)

###

# MEASUREMENT TARGET: catalytic domain of human Bub1 (amino acids 704-1085) (Homo sapiens, UniProt O43683)
# Construct: catalytic domain of human Bub1 (amino acids 704-1085); His6 (N); made in house; host or cells: Hi5 insect cells
# METHOD DESCRIPTION: Bub1 kinase assay (TR-FRET)
# Assay type: biochemical
# RUN PARAMETERS: 10 μM ATP, 1 μM peptide substrate, TR-FRET; read-out: Biological Assay 1: Bub1 kinase assay median IC50
pIC50: −log10 of the molar value.
QUANTITY NAME: pIC50

# MOL SMILES, pIC50
records = [
    ("CCOc1cc(F)c(Cn2nc(-c3nc(Nc4ccncc4)c(OC)c(Nc4ccncc4)n3)c(C)c2C2CC2)c(F)c1", 6.51),
    ("CCOc1cc(F)c(Cn2nc(-c3nc(Nc4ccncc4)c(NS(=O)(=O)CC)c(Nc4ccncc4)n3)c(C)c2C2CC2)c(F)c1", 6.12),
    ("CCOc1cc(F)c(Cn2nc(-c3nc(N)c(OC)c(Nc4ccncn4)n3)c(C)c2C2CC2)c(F)c1", 8.28),
    ("CCOc1cc(F)c(Cn2nc(-c3nc(N)cc(Nc4ccnnc4)n3)c(C)c2C2CC2)c(F)c1", 7.74),
    ("CCOc1cc(F)c(Cn2nc(-c3nc(Nc4ccncn4)c(OC)c(Nc4ccncn4)n3)c(C)c2C2CC2)c(F)c1", 6.74),
    ("CCOc1cc(F)c(Cn2nc(-c3nc4c(c(Nc5ccncn5)n3)OCC(=O)N4)c(C)c2C2CC2)c(F)c1", 7.47),
    ("CCOc1cc(F)c(Cn2nc(-c3nc(Nc4ccncc4)c(NS(=O)(=O)C(F)(F)F)c(Nc4ccncc4)n3)c(C)c2C2CC2)c(F)c1", 4.89),
    ("CCOc1cc(F)c(Cn2nc(-c3nc(N)c(N4CCOCC4)c(Nc4ccncc4)n3)c(C)c2C2CC2)c(F)c1", 7.92),
    ("CCOc1cc(F)c(Cn2nc(-c3nc4c(c(Nc5ccncc5)n3)OCC(=O)N4)c(C)c2C2CC2)c(F)c1", 7.92),
    ("CCOc1cc(F)c(Cn2nc(-c3nc(Nc4ccncn4)cc(Nc4ccncn4)n3)c(C)c2C2CC2)c(F)c1", 7.70),
]

(A) CCNC(=O)Nc1nc(-c2nn(Cc3c(F)cc(OCC)cc3F)c(C3CC3)c2C)nc(Nc2ccncn2)c1OC
(B) CCOc1cc(F)c(Cn2nc(-c3nc(N)cc(Nc4ccncn4)n3)c(C)c2C2CC2)c(F)c1
[ask] Which item exceeds the other in pIC50, A or B ? I would appreciate it if you answered with the label of your choice.
[reply] B
(B: 8.20, A: 6.47)

(P) CCOc1cc(F)c(Cn2nc(-c3nc(NC(=O)NC4CCCCC4)cc(Nc4ccncc4)n3)c(C)c2C2CC2)c(F)c1
(Q) CCOc1cc(F)c(Cn2nc(-c3nc(N)c(OC)c(Nc4ccncc4)n3)c(C)c2C2CC2)c(F)c1
[ask] Could you please tell me which of these two has the higher pIC50: P or Q ? Kindly state the label of the option you pick.
[reply] Q
